- System: Saccharomyces cerevisiae;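 note: PSI is a weighted mean of sequencing reads over stability bins, variants kept only with over 10 reads, mCherry proximal and sfGFP distal, peptide attached via GGGS linker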
- method: protein stability index of tFT-peptide fusion (C-terminal peptide) (PSI (0-1 scale)); higher = more stable (slower turnover)
- condition.label: genetic background: cdc34-1; temperature: 37 C
Criterion: protein stability index meeting or surpassing 0.4. Met: satisfied. Not met: not satisfied.

{"item.sequence": "TDVLLLQLLISV", "assigned.label": "not satisfied"}
{"item.sequence": "LSPRPPAPYYSP", "assigned.label": "satisfied"}
{"item.sequence": "LVPVWVGLRVLF", "assigned.label": "satisfied"}
{"item.sequence": "FLCIFFFFLISF", "assigned.label": "not satisfied"}

Now look at this entry.
Assess whether reported protein stability index for VLLCGCVWLWWG sits at 0.4 or higher.
satisfied

FYI, the data here is from the supplement of paper PMC10724198.
